Reported values of pIC50 for individual entries
tested target: wild type NTRK1 enzyme (Homo sapiens)
Construct: purchased BPS Bioscience 40280
test protocol: NTRK1 Wild Type Assay at 1 mM ATP
Format: biochemical
reported conditions: 1 mM ATP; read-out: Enz NTRK1 IC50
pIC50: −log10 of the molar value.

Solved cases (6 shown):
{"columns": ["molecule", "tested target", "pIC50"],
 "data": [
  ["CN(Cc1cc(Cl)ccc1Br)C(=O)c1n[nH]c2ncnc(N[C@@H]3CCC[C@@H](O)[C@H]3O)c12", "wild type NTRK1 enzyme (Homo sapiens)", "> 8.00"],
  ["O=C(c1n[nH]c2ncnc(N[C@@H]3COC[C@@H](O)[C@H]3O)c12)N1C[C@@H](F)C[C@@H]1c1cc(F)ccc1Cl", "wild type NTRK1 enzyme (Homo sapiens)", "> 8.00"],
  ["O=C(NCc1cc(F)ccc1F)c1n[nH]c2ncnc(N[C@H]3[C@H](O)[C@H](O)[C@@H]4C[C@@H]43)c12", "wild type NTRK1 enzyme (Homo sapiens)", "7.00 to 8.00"],
  ["O=C(c1n[nH]c2ncnc(N[C@@H]3CC[C@@H](O)[C@H]3O)c12)N1C[C@@H](F)C[C@@H]1c1cc(F)cc(F)c1F", "wild type NTRK1 enzyme (Homo sapiens)", "> 8.00"],
  ["CN(C(=O)c1n[nH]c2ncnc(NC3CC(C(F)F)CC3O)c12)C(CO)c1cc(F)ccc1F (centres unmarked)", "wild type NTRK1 enzyme (Homo sapiens)", "> 8.00"],
  ["O=C(c1n[nH]c2ncnc(N[C@@H]3CC[C@@H](O)[C@H]3O)c12)N1C[C@@H](F)C[C@@H]1c1cc(F)ccc1OC(F)F", "wild type NTRK1 enzyme (Homo sapiens)", "> 8.00"]
]}

Can you look up the measured pIC50 of O=C(c1n[nH]c2ncnc(NC3CCCC(O)C3O)c12)N1CC(F)CC1c1cccc(F)c1 (centres unmarked) for me? > 8.00

----------
tested target: wild type NTRK1 enzyme (Homo sapiens, UniProt P04629)
Construct: purchased BPS Bioscience 40280
Sequence (P04629 440-796 limits assumed): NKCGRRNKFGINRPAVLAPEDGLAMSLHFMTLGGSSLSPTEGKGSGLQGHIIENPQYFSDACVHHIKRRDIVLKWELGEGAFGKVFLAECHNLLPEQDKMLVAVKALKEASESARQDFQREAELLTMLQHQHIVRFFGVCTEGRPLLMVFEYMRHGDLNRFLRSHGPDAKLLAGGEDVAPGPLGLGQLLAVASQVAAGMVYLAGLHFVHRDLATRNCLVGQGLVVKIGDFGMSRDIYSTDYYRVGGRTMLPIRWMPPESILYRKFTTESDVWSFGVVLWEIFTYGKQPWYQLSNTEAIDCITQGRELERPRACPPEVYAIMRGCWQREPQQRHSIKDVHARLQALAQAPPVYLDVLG
test protocol: NTRK1 Wild Type Assay at 1 mM ATP
Type: biochemical
reported conditions: 1 mM ATP; read-out: Enz NTRK1 IC50
pIC50: −log10 of the molar value.
The compounds listed here are annotated with their pIC50.

{"columns": ["compound", "pIC50"],
 "data": [
  ["CN(Cc1cc(F)cnc1Cl)C(=O)c1n[nH]c2ncnc(NC3CCOCC3O)c12 (stereo not shown)", "7.00 to 8.00"],
  ["O=C(N[C@@H](c1cc(F)ccc1F)C(F)(F)F)c1n[nH]c2ncnc(N[C@@H]3COCC[C@H]3O)c12", "< 6.00"],
  ["O=C(c1n[nH]c2ncnc(N[C@@H]3COCC[C@H]3O)c12)N1C[C@@H](F)C[C@@H]1c1cc(F)cc(F)c1F", "> 8.00"],
  ["O=C(c1n[nH]c2ncnc(N[C@H]3[C@H](O)[C@H](O)[C@@H]4C[C@@H]43)c12)N1C[C@@H](F)C[C@@H]1c1cc(F)ccc1F", "> 8.00"],
  ["O=C(NCc1cc(F)ccc1F)c1n[nH]c2ncnc(NC3CC(O)CC3O)c12 (stereo not shown) [Compound 13]", "7.00 to 8.00"],
  ["CN(Cc1cc(F)cnc1Cl)C(=O)c1n[nH]c2ncnc(NC3CC(F)CC3O)c12 (stereo not shown)", "7.00 to 8.00"],
  ["O=C(c1n[nH]c2ncnc(N[C@@H]3C[C@@H](C(F)F)[C@@H](O)[C@H]3O)c12)N1C[C@@H](F)C[C@@H]1c1cc(F)ccc1F", "> 8.00"],
  ["CN(Cc1cc(F)ccc1OC(F)(F)F)C(=O)c1n[nH]c2ncnc(N[C@@H]3CC[C@@H](O)[C@H]3O)c12", "> 8.00"]
]}

# returns recorded pIC50 (system: wild type NTRK1 enzyme (Homo sapiens, UniProt P04629)) for CS(=O)(=O)C1CC(O)C(Nc2ncnc3[nH]nc(C(=O)N4CC(F)CC4c4cc(F)ccc4F)c23)C1 (stereo not shown) > 8.00

What pIC50 appears in the records for this compound with wild type NTRK1 enzyme (Homo sapiens, UniProt P04629)? N#Cc1cc(F)cc(C2CC(F)CN2C(=O)c2n[nH]c3ncnc(NC4COCCC4O)c23)c1 (stereo not shown) > 8.00

Identify the measured pIC50 of `O=C(NC1(c2cc(F)ccc2F)CC1)c1n[nH]c2ncnc(N[C@@H]3COCC[C@H]3O)c12` for wild type NTRK1 enzyme (Homo sapiens, UniProt P04629). 6.00 to 7.00

Look up pIC50 with wild type NTRK1 enzyme (Homo sapiens, UniProt P04629) for this compound: `CN(Cc1cc(F)cc(OC(F)F)c1)C(=O)c1n[nH]c2ncnc(N[C@@H]3CC[C@@H](O)[C@H]3O)c12` 7.00 to 8.00

Field: pIC50 (wild type NTRK1 enzyme (Homo sapiens, UniProt P04629)). Entry: `O=C(NCc1cc(F)ccc1OC(F)(F)F)c1n[nH]c2ncnc(N[C@@H]3CC[C@@H](O)[C@H]3O)c12` 6.00 to 7.00

Any idea what pIC50 came out for O=C(c1n[nH]c2ncnc(NC3CCCC(F)(F)[C@H]3O)c12)N1C[C@@H](F)C[C@@H]1c1cc(F)ccc1F (stereo partly shown) on wild type NTRK1 enzyme (Homo sapiens, UniProt P04629)? > 8.00

GET /values?readout=pIC50&system=wild type NTRK1 enzyme (Homo sapiens, UniProt P04629)&item= `O=C(c1n[nH]c2ncnc(N[C@@H]3CCC[C@H]3O)c12)N1CCC[C@@H]1c1cc(F)ccc1F` > 8.00

What measured pIC50 is associated with COc1c(F)cc(F)cc1C1CC(F)CN1C(=O)c1n[nH]c2ncnc(NC3CCCC(O)C3O)c12 (stereo not shown) on wild type NTRK1 enzyme (Homo sapiens, UniProt P04629)? > 8.00

Reference source for all entries: patent US11046697B2
